Test system: CEM cells HIV-1 protection, formazan growth assay
Test: NCI AIDS Antiviral Assay
Conditions: measured here: growth of uninfected CEM cells
pIC50: −log10 of the molar value.

- compound: "Cc1[nH]n(-c2ncc(C#N)c(=O)[nH]2)c(=O)c1CCO"
  assay.system: "CEM cells HIV-1 protection, formazan growth assay"
  pIC50: "< 3.70"
- compound: "CC(=O)Nc1ccc(C(=O)N2N=C(C)/C(=C/c3cccc(O)c3)C2=O)cc1"
  assay.system: "CEM cells HIV-1 protection, formazan growth assay"
  pIC50: "< 3.86"
- compound: "CCOC(=O)C1(C)CCCc2sc(N)c(C#N)c21 (stereo not given)"
  assay.system: "CEM cells HIV-1 protection, formazan growth assay"
  pIC50: "< 3.70"
- compound: "CNC(=O)OCc1c(COC(=O)NC)c2n(c1C)CS(=O)(=O)C2"
  assay.system: "CEM cells HIV-1 protection, formazan growth assay"
  pIC50: "< 3.70"
- compound: "CN(NC(=O)c1ccco1)C1=NCCN1"
  assay.system: "CEM cells HIV-1 protection, formazan growth assay"
  pIC50: "< 3.70"

====

Test system: CEM cells HIV-1 protection, formazan growth assay
Assay: NCI AIDS Antiviral Assay
Conditions: measured here: growth of uninfected CEM cells
Experimental: The ability of compounds to protect human CEM cells from HIV-1 infection is measured as a screen for new compounds capable of inhibiting the HIV virus. Five concentrations of drug were tested on uninfected and infected cells and cell growth was measured using a soluble formazan assay. […] Compounds that provided at least 50% protection were retested. Compounds that provided at least 50% protection on retest were listed as moderately active. […]

- compound: "C[Si](C)(C)C1=C2C(=O)c3ccccc3C(=O)C2=C([Si](C)(C)C)[C@@H]2CCCC[C@H]12"
  IC50: "> 50.1 µM"
- compound: "BrC(/C=N/Nc1nnc(-c2ccccc2)c(-c2ccccc2)n1)C(Br)c1ccccc1 (centres undefined)"
  IC50: "> 13.5 µM"
- compound: "CCOC(=O)/C(=C/c1ccc(N(C)C)cc1)N(CC)CC"
  IC50: "> 46.8 µM"
- compound: "CC(=O)OC1(C)C2c3ccccc3C(c3ccccc32)C1(C)C (centres undefined)"
  IC50: "> 85.1 µM"
- compound: "CC(=O)c1sc(-c2nc(C)c(C(=O)/C=C\\c3ccc(/C=C\\C(=O)c4sc(-c5nc(C)c(C(C)=O)s5)nc4C)cc3)s2)nc1C"
  IC50: "> 28.2 µM"
- compound: "COC(=O)C(/C(=N/NC(=O)c1ccncc1)C(=O)Nc1ccccc1OC)c1nc2ccc(Cl)cc2[nH]c1=O (centres undefined)"
  IC50: "> 91.2 µM"
- compound: "Cc1cc(C)c(C#N)c(SCC(=O)c2sc3c(C#N)c(C)cc(C)[n+]3c2[O-])n1"
  IC50: "> 6.61 µM"
- compound: "CCOC(=O)/C=C/c1ccc(Br)cc1"
  IC50: "> 28.2 µM"
- compound: "Cn1c(=O)c(C(=O)NC(=O)NCCCCCOC(=O)CCCCCCCCCCC(=O)OCCCCCNC(=O)NC(=O)c2cn(Cc3ccccc3)c(=O)n(C)c2=O)cn(Cc2ccccc2)c1=O"
  IC50: "> 7.41 µM"

====

Tested on: CEM cells HIV-1 protection, formazan growth assay
Assay: NCI AIDS Antiviral Assay
Details: measured here: growth of uninfected CEM cells
Protocol: The ability of compounds to protect human CEM cells from HIV-1 infection is measured as a screen for new compounds capable of inhibiting the HIV virus. Five concentrations of drug were tested on uninfected and infected cells and cell growth was measured using a soluble formazan assay. […] Compounds that provided at least 50% protection were retested. Compounds that provided at least 50% protection on retest were listed as moderately active. […]
pIC50: −log10 of the molar value.
Listing: pIC50 of selected compounds

- structure.notation: "NNC(=O)c1ccccc1NC(=O)/C(=C/c1ccccc1)NC(=O)c1ccccc1"
  assay.system: "CEM cells HIV-1 protection, formazan growth assay"
  pIC50: 4.06
- structure.notation: "COc1ccc(-c2onc3ccc(Br)cc23)cc1"
  assay.system: "CEM cells HIV-1 protection, formazan growth assay"
  pIC50: "< 4.63"
- structure.notation: "Cc1cc2cc(Cl)ccc2nc1C(=O)c1ccccc1"
  assay.system: "CEM cells HIV-1 protection, formazan growth assay"
  pIC50: "< 5.59"

Reference source for all entries: PubChem BioAssay AID179
